Cited source for all entries: patent US20230312742A1

# tested_target: human CD38 antigen (recombinant human CD38 protein) (human, UniProt P28907 43-300, limits assumed)
# method_summary: SPR, IgG captured on anti-human Fc, human CD38 in solution;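 also: humanized IgG captured on an amine-coupled anti-human Fc HC30M chip, with human CD38 injected as a dilution series from 1000 nM downward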
Recorded pKd by entry
Kindly note that pKd refers to -log10 of the concentration in mol/L and answer with the value alone.

Some entries whose results are on file:
binder="L2H3 (antibody, V domains shown, Humanized AT13/5 IgG, VL2 + VH3) VH: QVQLQESGPGLVKPSETLSITCTVSGFSLTSYGVHWIRQPPGKGLEWIGVMWRGGSTDYNPSLKSRVTISKDTSKNQFSLKLSSLTAADTAVYYCAKSMITTGFVMDSWGQGTLVTVSS VL: DIQMTQSPSSLSASVGDRVTITCRASEDIYNRLAWYQQKPGKAPKLLLSGATSLETGVPSRFSGSGSGTDYTLTISSLQPEDFATYYCQQYWSNPYTFGGGTKVEIK" recorded_number=6.08
binder="L2H7 (antibody, V domains shown, Humanized AT13/5 IgG, VL2 + VH7) VH: QVQLKQSGPGLVKPSETLSLTCTVSGFSLTSYGVHWIRQPPGKGLEWIGVMWRGGSTNYNPSLKSRLTISVDTSKNQFSLKLSSVTAADTAVYYCAKSMITTGFVMDSWGQGTLVTVSS VL: DIQMTQSPSSLSASVGDRVTITCRASEDIYNRLAWYQQKPGKAPKLLLSGATSLETGVPSRFSGSGSGTDYTLTISSLQPEDFATYYCQQYWSNPYTFGGGTKVEIK" recorded_number=6.41
binder="L1H6 (antibody, V domains shown, Humanized AT13/5 IgG, VL1 + VH6) VH: QVQLQESGPGLVKPSETLSLTCTVSGFSLTSYGVHWIRQPPGKGLEWLGVMWRGGSTNYNPSLKSRVTISKDTSKNQFSLKLSSVTAADTAVYYCAKSMITTGFVMDSWGQGTLVTVSS VL: DIQMTQSPSSLSASVGDRVTITCRASEDIYNRLTWYQQKPGKAPKLLLSGATSLETGVPSRFSGSGSGKDYTLTISSLQPEDFATYYCQQYWSNPYTFGGGTKVEIK" recorded_number=7.51
binder="L1H1 (antibody, V domains shown, Humanized AT13/5 IgG, VL1 + VH1) VH: QVQLQESGPGLVKPSETLSLTCTVSGFSLTSYGVHWIRQPPGKGLEWIGVMWRGGSTDYNPSLKSRVTISKDNSKRQFSLKLSSVTAADTAVYYCAKSMITTGFVMDSWGQGTLVTVSS VL: DIQMTQSPSSLSASVGDRVTITCRASEDIYNRLTWYQQKPGKAPKLLLSGATSLETGVPSRFSGSGSGKDYTLTISSLQPEDFATYYCQQYWSNPYTFGGGTKVEIK" recorded_number=6.06

Could you tell me which pKd is on file for L3H7 (antibody, V domains shown, Humanized AT13/5 IgG, VL3 + VH7) VH: QVQLKQSGPGLVKPSETLSLTCTVSGFSLTSYGVHWIRQPPGKGLEWIGVMWRGGSTNYNPSLKSRLTISVDTSKNQFSLKLSSVTAADTAVYYCAKSMITTGFVMDSWGQGTLVTVSS VL: DIQMTQSPSSLSASVGDRVTITCRASEDIYNRLTWYQQKPGKAPKLLLSGATSLETGVPSRFSGSGSGTDYTLTISSLQPEDFATYYCQQYWSNPYTFGGGTKVEIK ?
7.00
